Measured AC50 values are reported for all entries that follow.
- target system: 5-hydroxytryptamine receptor 2B (Homo sapiens); also: assay procedure not described here
- Sequence (P41595 whole entry): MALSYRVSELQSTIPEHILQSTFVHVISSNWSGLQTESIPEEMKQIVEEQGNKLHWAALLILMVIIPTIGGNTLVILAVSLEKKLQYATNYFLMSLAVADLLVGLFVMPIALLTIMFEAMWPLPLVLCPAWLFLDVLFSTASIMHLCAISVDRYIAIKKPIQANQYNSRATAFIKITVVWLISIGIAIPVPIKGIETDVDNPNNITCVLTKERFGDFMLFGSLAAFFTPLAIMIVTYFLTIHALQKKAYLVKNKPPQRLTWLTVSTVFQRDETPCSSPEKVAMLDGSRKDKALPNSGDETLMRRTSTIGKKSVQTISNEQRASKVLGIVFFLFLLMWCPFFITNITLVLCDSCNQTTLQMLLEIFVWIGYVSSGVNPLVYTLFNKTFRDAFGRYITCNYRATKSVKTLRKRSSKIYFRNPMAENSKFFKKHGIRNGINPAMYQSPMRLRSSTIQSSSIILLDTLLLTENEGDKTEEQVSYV
- Type: functional, cell-based

Here is how some molecules turned out for AC50.
molecule | AC50
Oc1ncnc2[nH]ncc12 | > 10 µM
CC(Cc1ccccc1)NCCC(c1ccccc1)c1ccccc1 (centres undefined) | > 10 µM
C[C@H]1C[C@@H]2[C@H]([C@@H](O)C[C@@]3(C)[C@H]2CC[C@]3(O)C(=O)CO)[C@@]2(C)C=CC(=O)C=C12 | > 10 µM
NS(=O)(=O)c1cc(-c2nnn[nH]2)c(NCc2cccs2)cc1Cl [AZOSEMIDE] | > 30 µM
Cc1nc2ccc(CN(C)c3ccc(C(=O)N[C@@H](CCC(=O)O)C(=O)O)s3)cc2c(=O)[nH]1 | > 30 µM

Briefly, AC50 measured for `CCCOc1ccc(C(=O)OCCN(CC)CC)cc1N` : > 30 µM

Briefly, AC50 measured for `COC(=O)[C@@H]1CC2=CC(=O)CC[C@]2(C)[C@@]23O[C@@H]2C[C@@]2(C)[C@@H](CC[C@@]24CCC(=O)O4)[C@H]13` : > 30 µM

Briefly, AC50 measured for CC(C)[N+](C)(CCC(C(N)=O)(c1ccccc1)c1ccccc1)C(C)C [ISOPROPAMIDE] : > 10 µM

Briefly, AC50 measured for `CC(C)NNC(=O)c1ccncc1` : > 30 µM

Briefly, AC50 measured for COc1c(N2CCNC(C)C2)c(F)cc2c(=O)c(C(=O)O)cn(C3CC3)c12 (centres undefined) : > 10 µM

Briefly, AC50 measured for `CC1=CC(=O)c2ccccc2C1=O` : > 10 µM

---

Consider compounds characterized by their AC50 with Vasopressin V1a receptor (Homo sapiens).
Sequence (P37288 whole entry): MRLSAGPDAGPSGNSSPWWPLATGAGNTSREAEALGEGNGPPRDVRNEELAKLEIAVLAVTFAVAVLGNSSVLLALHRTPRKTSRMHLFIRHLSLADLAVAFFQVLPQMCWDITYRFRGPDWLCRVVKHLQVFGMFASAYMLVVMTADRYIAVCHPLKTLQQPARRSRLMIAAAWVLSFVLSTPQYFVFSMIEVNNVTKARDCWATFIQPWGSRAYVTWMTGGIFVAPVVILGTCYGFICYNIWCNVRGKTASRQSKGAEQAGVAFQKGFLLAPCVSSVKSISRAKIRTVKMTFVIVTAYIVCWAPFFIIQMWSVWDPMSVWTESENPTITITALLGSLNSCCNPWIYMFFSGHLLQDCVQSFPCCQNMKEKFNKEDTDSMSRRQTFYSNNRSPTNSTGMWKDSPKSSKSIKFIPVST

compound | observed value
O=C1NCCN1CCN1CCC(c2cn(-c3ccc(F)cc3)c3ccc(Cl)cc23)CC1 | > 30 µM
CCCS(=O)(=O)Nc1ccc(F)c(C(=O)c2c[nH]c3ncc(-c4ccc(Cl)cc4)cc23)c1F | > 30 µM
C#CC1(OC(N)=O)CCCCC1 [ETHINAMATE] | > 10 µM
CCCCCCCCCCCC[N+](C)(C)CCOc1ccccc1 | 11 µM

Proceed to the following item.
Log: Vasopressin V1a receptor (Homo sapiens), compound NS(=O)(=O)c1cc2c(cc1Cl)NCNS2(=O)=O [HYDROCHLOROTHIAZIDE] , AC50 = > 10 µM

---

Consider compounds characterized by their AC50 with Muscarinic acetylcholine receptor M2 (Homo sapiens).

compound | AC50
CN1CCCC(CN2c3ccccc3Sc3ccccc32)C1 (stereo not drawn) | 0.347 µM

Proceed to the following item.
Briefly, AC50 measured for O=C1CCC(N2C(=O)c3ccccc3C2=O)C(=O)N1 (stereo not drawn) [THALIDOMIDE] : 14.8 µM

---

- target system: Muscarinic acetylcholine receptor M2 (Homo sapiens, UniProt P08172)
- Sequence (P08172 whole entry): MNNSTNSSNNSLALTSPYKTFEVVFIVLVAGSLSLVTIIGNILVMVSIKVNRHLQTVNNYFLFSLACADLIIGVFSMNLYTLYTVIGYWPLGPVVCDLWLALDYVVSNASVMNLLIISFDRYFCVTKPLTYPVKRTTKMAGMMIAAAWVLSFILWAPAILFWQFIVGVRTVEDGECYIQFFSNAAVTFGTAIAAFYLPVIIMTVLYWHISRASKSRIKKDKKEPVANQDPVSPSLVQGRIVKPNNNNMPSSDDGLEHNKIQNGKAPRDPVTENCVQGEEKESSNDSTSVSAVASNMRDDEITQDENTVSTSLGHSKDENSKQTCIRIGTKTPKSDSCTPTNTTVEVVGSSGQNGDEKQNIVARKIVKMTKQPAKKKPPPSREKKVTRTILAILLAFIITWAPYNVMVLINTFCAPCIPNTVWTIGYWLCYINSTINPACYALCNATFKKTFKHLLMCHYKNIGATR
- Assay type: functional, cell-based
measure name: AC50

Briefly, AC50 measured for CC(C)C(=O)OCC(=O)[C@@]12O[C@H](C3CCCCC3)O[C@@H]1C[C@H]1[C@@H]3CCC4=CC(=O)C=C[C@]4(C)[C@H]3[C@@H](O)C[C@@]12C [CICLESONIDE] : > 10 µM

Briefly, AC50 measured for C#CC1(OC(N)=O)CCCCC1 [ETHINAMATE] : > 10 µM

---

- target system: UniProt:P08913
- Sequence (P08913 whole entry): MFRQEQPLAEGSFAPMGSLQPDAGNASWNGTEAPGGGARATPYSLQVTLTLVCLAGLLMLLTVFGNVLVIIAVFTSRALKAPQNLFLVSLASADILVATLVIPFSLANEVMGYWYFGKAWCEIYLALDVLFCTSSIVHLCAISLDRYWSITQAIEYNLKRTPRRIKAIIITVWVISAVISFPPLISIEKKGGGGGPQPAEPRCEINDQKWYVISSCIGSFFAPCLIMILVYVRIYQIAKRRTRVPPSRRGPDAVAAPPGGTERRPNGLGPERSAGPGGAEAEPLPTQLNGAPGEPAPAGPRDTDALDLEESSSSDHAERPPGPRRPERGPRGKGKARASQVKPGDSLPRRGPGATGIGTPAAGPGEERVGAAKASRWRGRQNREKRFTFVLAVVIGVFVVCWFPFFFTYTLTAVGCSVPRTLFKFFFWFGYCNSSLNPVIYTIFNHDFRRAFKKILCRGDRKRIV
- Format: functional, cell-based
measure name: AC50

Here is how some molecules turned out for AC50.
molecule | AC50
Cc1cccc(C)c1NC(=O)C1CCCCN1C (stereo not given) [MEPIVACAINE] | > 30 µM
COC(=O)C1=C(C)NC(C)=C(C(=O)OCC(C)C)C1c1ccccc1[N+](=O)[O-] (stereo not given) | > 10 µM
CC(C)NNC(=O)c1ccncc1 | > 30 µM
COc1ccc(C(=O)NCc2ccc(OCCN(C)C)cc2)cc1OC [ITOPRIDE] | > 30 µM

Log: UniProt:P08913, molecule NS(=O)(=O)c1cc2c(cc1Cl)NCNS2(=O)=O [HYDROCHLOROTHIAZIDE] , AC50 = > 10 µM

Log: UniProt:P08913, molecule CC(C)C(=O)Nc1ccc([N+](=O)[O-])c(C(F)(F)F)c1 [FLUTAMIDE] , AC50 = > 10 µM

Log: UniProt:P08913, molecule O=C(OCCN1CCOCC1)c1cccnc1Nc1cccc(C(F)(F)F)c1 [MORNIFLUMATE] , AC50 = > 30 µM

Log: UniProt:P08913, molecule `Nc1ccc(/N=N/c2ccccc2)c(N)n1` , AC50 = > 30 µM

Log: UniProt:P08913, molecule CN(CCOc1ccc(NS(C)(=O)=O)cc1)CCc1ccc(NS(C)(=O)=O)cc1 [DOFETILIDE] , AC50 = > 30 µM

Log: UniProt:P08913, molecule `CN(CCCN1c2ccccc2CCc2ccccc21)CC(=O)c1ccc(Cl)cc1` , AC50 = > 30 µM

Log: UniProt:P08913, molecule O=C(C[S+]([O-])C(c1ccccc1)c1ccccc1)NO (stereo not given) , AC50 = > 30 µM

Log: UniProt:P08913, molecule `O=P(O)(O)C(O)(Cc1cccnc1)P(=O)(O)O` , AC50 = > 30 µM

---

Measured AC50 values are reported for all entries that follow.
- target system: Alpha-1A adrenergic receptor (Homo sapiens, UniProt P35348); also: assay procedure not described here
- Sequence (P35348 whole entry): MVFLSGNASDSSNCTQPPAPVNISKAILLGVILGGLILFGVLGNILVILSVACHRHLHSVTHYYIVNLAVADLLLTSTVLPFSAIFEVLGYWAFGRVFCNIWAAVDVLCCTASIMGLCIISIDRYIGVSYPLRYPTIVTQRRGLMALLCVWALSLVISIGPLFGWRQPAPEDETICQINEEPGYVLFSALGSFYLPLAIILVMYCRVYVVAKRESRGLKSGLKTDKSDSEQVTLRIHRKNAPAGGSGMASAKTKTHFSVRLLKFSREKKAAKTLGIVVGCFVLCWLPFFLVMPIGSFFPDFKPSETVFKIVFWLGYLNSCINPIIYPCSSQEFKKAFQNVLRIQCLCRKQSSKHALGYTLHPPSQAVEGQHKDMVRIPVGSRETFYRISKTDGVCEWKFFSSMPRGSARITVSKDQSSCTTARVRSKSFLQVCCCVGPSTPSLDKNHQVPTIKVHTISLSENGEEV
- Assay type: functional, cell-based

Here is how some compounds turned out for AC50.
compound | observed value
CC(C)C(=O)Nc1ccc([N+](=O)[O-])c(C(F)(F)F)c1 [FLUTAMIDE] | 9.04 µM
CN1CCCC(CN2c3ccccc3Sc3ccccc32)C1 (stereo unspecified) | 0.391 µM
NCc1ccccc1CC(=O)N[C@@H]1C(=O)N2C(C(=O)O)=C(CSc3nnnn3CC(=O)O)CS[C@H]12 [CEFORANIDE] | > 30 µM
C[C@@H]1C[C@H]2[C@@H]3C[C@H](F)C4=CC(=O)C=C[C@]4(C)[C@@]3(F)[C@@H](O)C[C@]2(C)[C@@]1(O)C(=O)COC(=O)C(C)(C)C [FLUMETHASONE PIVALATE] | > 30 µM
CN(Cc1cc(Br)cc(Br)c1N)C1CCCCC1 | > 30 µM
Nc1ccc(C(=O)O)cc1 | > 30 µM
CC1=NN(c2ccccc2)C(=O)C1 | > 30 µM
CCOC(=O)C(c1c(O)c2ccccc2oc1=O)c1c(O)c2ccccc2oc1=O [ETHYL BISCOUMACETATE] | > 30 µM

Log: Alpha-1A adrenergic receptor (Homo sapiens, UniProt P35348), compound CC(C(=O)O)c1ccc2c(c1)Cc1cccnc1O2 (stereo unspecified) , AC50 = > 30 µM

Log: Alpha-1A adrenergic receptor (Homo sapiens, UniProt P35348), compound `O=[N+]([O-])c1cncn1CCN1CCOCC1` , AC50 = > 30 µM

Log: Alpha-1A adrenergic receptor (Homo sapiens, UniProt P35348), compound CC1(C)O[C@@H]2C[C@H]3[C@@H]4C[C@H](F)C5=CC(=O)CC[C@]5(C)[C@H]4[C@@H](O)C[C@]3(C)[C@]2(C(=O)CO)O1 [FLURANDRENOLIDE] , AC50 = > 30 µM

Log: Alpha-1A adrenergic receptor (Homo sapiens, UniProt P35348), compound `Oc1c(I)cc(I)c2cccnc12` , AC50 = > 30 µM

Log: Alpha-1A adrenergic receptor (Homo sapiens, UniProt P35348), compound `Oc1cccc2cccnc12` , AC50 = 20.8 µM

Log: Alpha-1A adrenergic receptor (Homo sapiens, UniProt P35348), compound CC(C)Cc1ccc(C(C)C(=O)NO)cc1 (stereo unspecified) , AC50 = > 30 µM

Log: Alpha-1A adrenergic receptor (Homo sapiens, UniProt P35348), compound Nc1ccc(S(N)(=O)=O)cc1 [SULFANILAMIDE] , AC50 = > 30 µM

Log: Alpha-1A adrenergic receptor (Homo sapiens, UniProt P35348), compound `C#C[C@]1(O)CC[C@H]2[C@@H]3CCC4=CC(=O)CC[C@@H]4[C@H]3CC[C@@]21CC` , AC50 = > 30 µM

Log: Alpha-1A adrenergic receptor (Homo sapiens, UniProt P35348), compound `Cc1nc(-c2ccc(OCC(C)C)c(C#N)c2)sc1C(=O)O` , AC50 = > 30 µM

Log: Alpha-1A adrenergic receptor (Homo sapiens, UniProt P35348), compound Cc1c(-c2ccccc2)oc2c(C(=O)OCCN3CCCCC3)cccc2c1=O [FLAVOXATE] , AC50 = 6.29 µM

Log: Alpha-1A adrenergic receptor (Homo sapiens, UniProt P35348), compound `C(=N\NC1=NCCN1)/c1c2ccccc2c(/C=N/NC2=NCCN2)c2ccccc12` , AC50 = 1.47 µM

Log: Alpha-1A adrenergic receptor (Homo sapiens, UniProt P35348), compound `C#C[C@]1(O)CC[C@H]2[C@@H]3CCc4cc(O)ccc4[C@H]3CC[C@@]21C` , AC50 = > 10 µM

Log: Alpha-1A adrenergic receptor (Homo sapiens, UniProt P35348), compound `CN1CCN(C(c2ccccc2)c2ccccc2)CC1` , AC50 = > 30 µM

Log: Alpha-1A adrenergic receptor (Homo sapiens, UniProt P35348), compound `CC[C@@H]1/C=C(\C)C[C@H](C)C[C@H](OC)[C@H]2O[C@@](O)(C(=O)C(=O)N3CCCC[C@H]3C(=O)O[C@H](/C(C)=C/[C@@H]3CC[C@H](Cl)[C@H](OC)C3)[C@H](C)[C@@H](O)CC1=O)[C@H](C)C[C@@H]2OC` , AC50 = > 30 µM

Log: Alpha-1A adrenergic receptor (Homo sapiens, UniProt P35348), compound CC(=O)Oc1c(C)cc(OCC(O)CNC(C)C)c(C)c1C (stereo unspecified) , AC50 = > 30 µM

Log: Alpha-1A adrenergic receptor (Homo sapiens, UniProt P35348), compound `Nc1nc2ccc(OC(F)(F)F)cc2s1` , AC50 = > 30 µM

Log: Alpha-1A adrenergic receptor (Homo sapiens, UniProt P35348), compound O=C1NCC2(CCN(CCc3ccccc3)CC2)O1 [FENSPIRIDE] , AC50 = > 30 µM

Log: Alpha-1A adrenergic receptor (Homo sapiens, UniProt P35348), compound `Nc1nc(N)c2nc(-c3ccccc3)c(N)nc2n1` , AC50 = > 30 µM

Log: Alpha-1A adrenergic receptor (Homo sapiens, UniProt P35348), compound CCC1C(C)=NN=C(c2ccc(OC)c(OC)c2)c2cc(OC)c(OC)cc21 (stereo unspecified) , AC50 = > 30 µM
